Assignment: determine reported self-cleavage for the given variants.
B1: HDV Ribozyme (parent)
chain: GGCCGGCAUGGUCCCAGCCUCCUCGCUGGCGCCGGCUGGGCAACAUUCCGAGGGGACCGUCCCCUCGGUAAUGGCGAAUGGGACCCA

Variants of: B1
Assay: self-cleavage, relative activity (ratio to wild type); higher = more cleavage; co-transcriptional
Answers are plain numbers.

Recorded self-cleavage, per entry:
C33U G81C; 0.119
C26A G81C; 0.193
C22A G55A; 0.284
A71G C75G; 0.0755
U37C G73A; 0.493

Take each entry in turn and give its self-cleavage.
1. G39U U47A
2. C30U C32A
3. U69G U72G
4. C75G A83C

0.554
0.155
0.997
0.489

Take each entry in turn and give its self-cleavage.
1. C63U A83U
2. U9G C19G
3. U9A C64U
4. G39A U46A

0.584
0
1.04
0.0773

Take each entry in turn and give its self-cleavage.
1. G5A G38C
2. U46A U72C

1. 0.208
2. 0.655

Take each entry in turn and give its self-cleavage.
1. A8C C15G
2. C18U C49U
3. G10U A56U
4. G1C A43U
5. A51U U65A
6. U46G U72C
7. C26A C64U

0.378
0.587
0.893
0.135
0.966
0.287
1.13

Take each entry in turn and give its self-cleavage.
1. G11U G68C
2. G11C G40C
3. C3A C19U
4. G29U G80A
5. U12G G25C
6. G28U U65G
7. C26G A78G
8. G11C C24U

1: 0.297; 2: 0.0475; 3: 0.0134; 4: 0.0934; 5: 0.119; 6: 0.128; 7: 0.633; 8: 0.219

Take each entry in turn and give its self-cleavage.
1. G25C G59C
2. U46G G67C
3. C14G G25C
4. U12C U20G
5. A45G C64G
6. C18U A78C
7. C32U C58A
8. C26A G59C

1: 0.131; 2: 0.208; 3: 0; 4: 0.0831; 5: 0.591; 6: 0.185; 7: 1; 8: 0.944

Take each entry in turn and give its self-cleavage.
1. A8U C63A
2. C41G C62G
3. C26A C85A
4. C26U A56C
5. U27C C75U
6. U60C G76C
7. A16G A42U
8. G25U C61G

1. 0.415
2. 0.252
3. 0.997
4. 1.12
5. 0.161
6. 1.16
7. 0.396
8. 0.0978

Take each entry in turn and give its self-cleavage.
1. C26G C48U
2. A56U C58U
3. G6A C36A

1. 0.877
2. 0.985
3. 0
